Measured INHIBITION values are reported for all entries that follow.
- Test system: Plasmodium berghei
- test.method.notes: Screen against P. berghei liver stage (PbLuc), transformed with Luciferase, at 2uM
- Format: functional, HepG2
- cond: tested at 2 uM
Hit rate of the full screen: of about 68,000 compounds, about 2,700 (4%) showed an effect of 50% or more. For the sample, strong results were picked, then their nearest neighbours and some compounds at random.

{"columns": ["compound", "assay.system", "INHIBITION [%]"],
 "data": [
  ["CC(=O)N1CCC2(C1)CN(S(=O)(=O)c1ccccc1)C2", "Plasmodium berghei", 56.76],
  ["Cc1nn(Cn2ccc(C(=O)N3CCCCCC3)n2)c(C)c1Cl", "Plasmodium berghei", 7.68],
  ["Cc1cnn(CC2CCCN2C(=O)CCc2ccncc2)c1 (configuration not stated)", "Plasmodium berghei", -5.39],
  ["CC(CCc1ccccc1)NC(=O)Nc1cnn(CC(N)=O)c1 (configuration not stated)", "Plasmodium berghei", 41.72],
  ["COCc1nc2nc(O)c3c(n2n1)NC(=O)CC3c1ccc(SC)cc1 (configuration not stated)", "Plasmodium berghei", -19.97],
  ["CC(Cc1ccccc1Cl)NC(=O)Nc1cnn(CC(N)=O)c1 (configuration not stated)", "Plasmodium berghei", -7.81],
  ["CS(=O)(=O)N1CCC2(CC1)COC(COc1ccccn1)C2 (configuration not stated)", "Plasmodium berghei", 46.32],
  ["COCC[C@]1(O)CCN(Cc2ccccn2)C[C@H]1C", "Plasmodium berghei", 5.39],
  ["CC(=O)N1CCC2(CCCN(S(=O)(=O)c3ccccc3)C2)C1 (configuration not stated)", "Plasmodium berghei", 52.36],
  ["CN(C)CC(=O)N1CC2(CCN(S(=O)(=O)c3ccccc3)C2)C1", "Plasmodium berghei", 39.51],
  ["CC(=O)N1CCC2(CCN(S(=O)(=O)c3ccccc3)CC2)C1", "Plasmodium berghei", 11.18],
  ["Cc1ccccc1CC(C)NC(=O)Nc1cnn(CC(N)=O)c1 (configuration not stated)", "Plasmodium berghei", 81.1]
]}
